Where do the numbers come from? From the Human Domainome abundance scans (Beltran et al. 2025).

B1: Ankyrin-2, residues 3571 to 3650; numbered along this chain, Q01484 (parent)
chain: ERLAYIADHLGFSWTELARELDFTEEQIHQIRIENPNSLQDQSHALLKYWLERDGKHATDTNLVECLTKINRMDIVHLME

Variants of: B1
protocol-text: abundance fitness (aPCA) (normalised: wild type 0, dead -1); higher = more abundant; growth selection in yeast, the domain comes from the species named
measurement-context: Homo sapiens
Outcome label depends on abundance fitness relative to -0.07: at/above gives YES, below gives NO.

>  <mutation-string>
F23R

>  <label>
NO

$$$$
>  <mutation-string>
G11P

>  <label>
NO

$$$$
>  <mutation-string>
D41V

>  <label>
YES

$$$$
>  <mutation-string>
A4F

>  <label>
YES

$$$$
>  <mutation-string>
R32L

>  <label>
YES

$$$$

Kindly determine if abundance fitness recorded for `F12Y` is above or exactly -0.07.
NO

Kindly determine if abundance fitness recorded for `D8Q` is above or exactly -0.07.
YES

Kindly determine if abundance fitness recorded for `L21T` is above or exactly -0.07.
NO

Kindly determine if abundance fitness recorded for `G11I` is above or exactly -0.07.
NO

Kindly determine if abundance fitness recorded for `K48V` is above or exactly -0.07.
NO
